Test: Cytotoxicity against human U87 cells after 72 hrs by MTT assay
Type: functional, cell-based, U-87MG ATCC
Details: U-87 MG
Assignment: determine reported pIC50 for the given molecules.
Numbers only, as −log10 of the molar value.

Record excerpt, results attached:
molecule="COc1cc([C@@H]2c3cc4c(cc3[C@@H](O[C@@H]3O[C@@H]5CO[C@@H](C)O[C@H]5[C@H](O)[C@H]3O)[C@H]3COC(=O)[C@H]23)OCO4)cc(OC)c1O [ETOPOSIDE]" readout=pIC50 experimental_result=4.91
molecule="CC(C)=C1CC=C([C@H]2CC[C@]3(C)[C@@H]2CC[C@@H]2[C@@]4(C)CC[C@H](O)C(C)(C)[C@@H]4CC[C@]23C)C1=O [GYPENSAPOGENIN C]" readout=pIC50 experimental_result=6.24

// below: pIC50 requested for another molecule
Data request: Sample CC(C)=CCC[C@](C)(O)[C@H]1CC[C@]2(C)[C@@H]1[C@H](O)C[C@@H]1[C@@]3(C)CC[C@H](O)C(C)(C)[C@@H]3CC[C@]12C — what was its pIC50?
Data returned: 4.43
